# Test system: Yap1 mRNA
# ASSAY COMMENT: Antisense inhibition of human Yap1 in A-431 cells by cEt gapmers, single dose (Example 4, RTS4814)
# Type: cell-based
# CONDITION DETAILS: Table 16; A-431 cells, 5,000 cells per well, free uptake, 2,000 nM, approximately 48 hours; RTS4814; normalized to RIBOGREEN; Yap1 mRNA relative to untreated control cells
Strand notation (5' to 3'): a small letter for the sugar, then the base; units joined by * are phosphorothioate-linked, units joined directly phosphodiester-linked; [ ] holds rarer units or linkages, { } end groups; capitals alone tell only the bases. k = constrained ethyl (cEt); [5mC] = 5-methylcytosine; d = 2'-deoxy (DNA)
Rule: YAP1 (% UTC) under 30 % UTC gives No, otherwise Yes.

# count of solved cases: 5
1074658 (antisense kG*kG*k[5mC]*d[5mC]*dA*dT*dT*dT*d[5mC]*d[5mC]*d[5mC]*d[5mC]*d[5mC]*k[5mC]*kA*kG) [Compound 1074658]
Yes
1075746 (kG*kA*kT*dT*dA*dA*d[5mC]*d[5mC]*d[5mC]*dA*dG*dT*dA*kG*kA*kG; antisense) [Compound 1075746]
No
1076130 (k[5mC]*kT*kG*dG*dA*dA*dT*dA*dG*dT*dG*dG*dG*kT*kG*k[5mC]; antisense) [Compound 1076130]
Yes
1074850 (antisense kT*kT*kG*dT*dT*dA*dT*dG*dA*dT*dA*dG*dG*k[5mC]*kA*k[5mC]) [Compound 1074850]
No
1075682 (kG*kA*kT*dA*dA*dT*dT*dA*dT*dT*dA*d[5mC]*d[5mC]*k[5mC]*k[5mC]*kT; antisense) [Compound 1075682]
Yes

Does YAP1 (% UTC) meet or surpass 30 % UTC for 1074626 (antisense k[5mC]*kT*kG*dT*dT*dA*dT*dG*dA*dA*d[5mC]*d[5mC]*d[5mC]*kT*kT*kG) [Compound 1074626] ?
No

Does YAP1 (% UTC) meet or surpass 30 % UTC for 1076482 (antisense k[5mC]*kT*kT*dT*dA*dG*dA*d[5mC]*dT*dA*dA*dG*dT*kA*kA*kG) [Compound 1076482] ?
Yes

Does YAP1 (% UTC) meet or surpass 30 % UTC for 1075138 (antisense kA*kA*kT*dA*dA*dT*dA*dG*dA*dT*dA*d[5mC]*dT*kG*k[5mC]*k[5mC]) [Compound 1075138] ?
No

Sourced from patent US11214803B2
